- TARGET SYSTEM: mPGES-1 Mouse enzyme (Mus musculus, UniProt Q9JM51)
- Construct: made in house; host or cells: FreeStyle 293-F cells, crude microsomal preparation
- Sequence (Q9JM51 whole entry): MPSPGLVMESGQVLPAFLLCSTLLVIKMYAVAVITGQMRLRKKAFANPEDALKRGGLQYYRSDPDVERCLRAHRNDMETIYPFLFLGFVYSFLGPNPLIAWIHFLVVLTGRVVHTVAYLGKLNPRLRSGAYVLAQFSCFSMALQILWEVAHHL
- ASSAY EXPLANATION: mPGES-1 enzyme activity assay (PGE2 enzyme immunoassay), mouse enzyme
- Assay type: biochemical
- CONDITION SET: compound at a concentration of 10 μM; read-out: % inhibition of the compound against mPGES-1, Mouse enzyme
Collected inhibition at 10 µM values appear next to each entry.
Please append the unit to your numeric answer.

Worked cases, inhibition at 10 µM given:
[[record]]
smiles_representation = "O=C1NC(=S)NC(=O)C1=Cc1cn(-c2ccccc2)nc1-c1ccc(OCc2ccccc2)cc1"
target_system = "mPGES-1 Mouse enzyme (Mus musculus, UniProt Q9JM51)"
result = "25%"

[[record]]
smiles_representation = "CN1C(=O)C(=Cc2ccc(OCCCC3CCCCC3)c(Br)c2)C(=O)N(C)C1=O"
target_system = "mPGES-1 Mouse enzyme (Mus musculus, UniProt Q9JM51)"
result = "30%"

[[record]]
smiles_representation = "O=C(CCCN1C(=O)C=CC1=O)Nc1ccc(OCCCC2CCCCC2)cc1"
target_system = "mPGES-1 Mouse enzyme (Mus musculus, UniProt Q9JM51)"
result = "55%"

[[record]]
smiles_representation = "CCCCCCCCCCOc1ccc(-c2nn(-c3ccc(Cl)cc3)cc2C=C2C(=O)NC(=S)NC2=O)cc1"
target_system = "mPGES-1 Mouse enzyme (Mus musculus, UniProt Q9JM51)"
result = "56%"

[[record]]
smiles_representation = "O=C1S/C(=C\\c2ccc(Oc3cc([N+](=O)[O-])c([N+](=O)[O-])cc3F)c([N+](=O)[O-])c2)C(=O)N1CCCCC1CCCCC1"
target_system = "mPGES-1 Mouse enzyme (Mus musculus, UniProt Q9JM51)"
result = "91%"


// sample CCOc1ccc(-c2nn(-c3ccc(Cl)cc3)cc2C=C2C(=O)NC(=O)NC2=O)cc1 , its inhibition at 10 µM was 28%

// sample CN1C(=O)C(=Cc2ccc(OCCCCC3CCCCC3)c(Cl)c2)C(=O)N(C)C1=O , its inhibition at 10 µM was 8%

// sample CN1C(=O)C(=Cc2ccc(OCCCCC3CCCCC3)c([N+](=O)[O-])c2)C(=O)N(C)C1=O , its inhibition at 10 µM was 15%

----------
Collected IC50 values appear next to each entry.
- TARGET SYSTEM: mPGES-1 (Homo sapiens, UniProt O14684)
- Sequence (O14684 whole entry): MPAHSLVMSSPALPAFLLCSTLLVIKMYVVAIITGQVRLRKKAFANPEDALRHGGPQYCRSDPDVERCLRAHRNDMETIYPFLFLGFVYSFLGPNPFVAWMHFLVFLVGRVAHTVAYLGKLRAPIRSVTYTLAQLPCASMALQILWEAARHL
- ASSAY EXPLANATION: mPGES-1 enzyme activity assay (PGE2 enzyme immunoassay), human enzyme
- Type: biochemical
- Design: made in house; host or cells: FreeStyle 293-F cells, crude microsomal preparation
- CONDITION SET: IC50 against mPGES-1, Human enzyme, recombinant microsomal enzyme; means ± SD, triplicate
Please append the unit to your numeric answer.

[[record]]
compound = "O=C1NC(=O)C(=Cc2c(OCCCCC3CCCCC3)ccc3ccccc23)C(=O)N1 [Compound I-16]"
endpoint = "IC50"
result = "154 nM"


// sample CCCCCCCOc1ccc(C=C2C(=O)NC(=O)NC2=O)cc1[N+](=O)[O-] [Compound I-40] , its IC50 was 232 nM

----------
- TARGET SYSTEM: mPGES-1 (Homo sapiens, UniProt O14684)
- ASSAY EXPLANATION: mPGES-1 enzyme activity assay (PGE2 enzyme immunoassay), human enzyme
- Type: biochemical
- Parameters: made in house; host or cells: FreeStyle 293-F cells, crude microsomal preparation
- CONDITION SET: recombinant microsomal enzyme; means ± SD, triplicate; read-out: IC50 against mPGES-1, Human enzyme
- Experimental: Studies were conducted to characterize the inhibitory activity against recombinant mPGES-1 of the compounds synthesized in accordance with Examples 1-4, and disclosed herein. […] Compounds were incubated with the enzyme for 15 min at room temperature before the addition of cold PGH2 (1 μM final) to initiate the enzyme reaction. […] The reaction mixture was placed on ice until PGE2 production was determined by the PGE2 enzyme immunoassay as described earlier. […]
ENDPOINT: IC50 (nM)
Field format: number, assumed nM, no unit text.

[[record]]
smiles_representation = "CCCCCCCCCCOc1ccc(-c2nn(-c3ccc(Cl)cc3)cc2/C=C(/C#N)C(=O)O)cc1"
endpoint = "IC50"
quantitative_result = 97

[[record]]
smiles_representation = "CCCCCCCCOc1ccc(-c2nn(-c3ccc(Cl)cc3)cc2/C=C(/C#N)C(=O)O)cc1"
endpoint = "IC50"
quantitative_result = 90

[[record]]
smiles_representation = "O=C1NC(=O)/C(=C2/C(=O)N(CCCC3CCCCC3)c3ccccc32)S1"
endpoint = "IC50"
quantitative_result = 1390

[[record]]
smiles_representation = "CCCCCCCOc1ccc(/C=C(\\C#N)C(=O)OCC)cc1OC"
endpoint = "IC50"
quantitative_result = 4280

[[record]]
smiles_representation = "O=C(O)CN1C(=O)/C(=C2\\SC(=O)N(CCCCc3ccccc3)C2=O)c2ccccc21"
endpoint = "IC50"
quantitative_result = 962

[[record]]
smiles_representation = "CCOC(=O)/C(C#N)=C/c1ccc(OCC2CCCCC2)c(OC)c1"
endpoint = "IC50"
quantitative_result = 10800

[[record]]
smiles_representation = "CCCCCCCCCCCCCCCCCCOc1c(Br)cc(C=C(C#N)C#N)cc1OC"
endpoint = "IC50"
quantitative_result = 50

[[record]]
smiles_representation = "O=C(CCCCCN1C(=O)C=CC1=O)Nc1ccc2c(c1)Cc1ccccc1-2"
endpoint = "IC50"
quantitative_result = 613


// sample COc1cc(/C=C(\C#N)C(N)=O)ccc1OCC1CCCCC1 , its IC50 was 1460

// sample O=C(O)CN1C(=O)S/C(=C2\C(=O)N(CCCC3CCCCC3)c3ccc(-c4ccccc4)cc32)C1=O , its IC50 was 16

----------
Collected inhibition at 10 µM values appear next to each entry.
- TARGET SYSTEM: mPGES-1 (Homo sapiens, UniProt O14684)
- ASSAY EXPLANATION: mPGES-1 enzyme activity assay (PGE2 enzyme immunoassay), human enzyme
- Type: biochemical
- Set-up: made in house; host or cells: FreeStyle 293-F cells, crude microsomal preparation
- CONDITION SET: compound at a concentration of 10 μM; read-out: % inhibition of the compound against mPGES-1, Human enzyme
Field format: number, assumed %, no unit text.

// sample CCCCCCCCCCOc1ccc(-c2nn(-c3ccc(Cl)cc3)cc2C=C2C(=O)N(C)C(=O)N(C)C2=O)cc1 , its inhibition at 10 µM was 0

// sample CCCCCCCCOc1ccc(-c2nn(-c3ccccc3)cc2C=C2C(=O)N(C)C(=O)N(C)C2=O)cc1 , its inhibition at 10 µM was 16

// sample CCCCOc1ccc(-c2nn(-c3ccc(Cl)cc3)cc2C=C2C(=O)N(C)C(=O)N(C)C2=O)cc1 , its inhibition at 10 µM was 29

// sample CCCCCCCCCCOc1ccc(-c2nn(-c3ccccc3)cc2C=C(C#N)C#N)cc1 , its inhibition at 10 µM was 49

----------
- TARGET SYSTEM: mPGES-1 Mouse enzyme (Mus musculus, UniProt Q9JM51)
- Construct: made in house; host or cells: FreeStyle 293-F cells, crude microsomal preparation
- ASSAY EXPLANATION: mPGES-1 enzyme activity assay (PGE2 enzyme immunoassay), mouse enzyme
- Format: biochemical
- CONDITION SET: recombinant microsomal enzyme; means ± SD, triplicate; read-out: IC50 against mPGES-1, Mouse enzyme
Output: class label from IC50. Mapping: bin A (below 900 nM), bin B (900 nM to below 2000 nM), bin C (2000 nM or more)

[[record]]
smiles_representation = "O=C(O)CN1C(=O)S/C(=C2\\C(=O)N(CC3CCCCC3)c3ccc(-c4ccccc4)cc32)C1=O"
target_system = "mPGES-1 Mouse enzyme (Mus musculus, UniProt Q9JM51)"
class = "bin A"

[[record]]
smiles_representation = "O=C(O)CN1C(=O)S/C(=C2\\C(=O)N(CCCC3CCCCC3)c3ccc(-c4ccccc4)cc32)C1=O"
target_system = "mPGES-1 Mouse enzyme (Mus musculus, UniProt Q9JM51)"
class = "bin B"

[[record]]
smiles_representation = "CCCCOc1ccc(C=C(C#N)C#N)cc1OC"
target_system = "mPGES-1 Mouse enzyme (Mus musculus, UniProt Q9JM51)"
class = "bin B"

[[record]]
smiles_representation = "O=C(O)CN1C(=O)S/C(=C2\\C(=O)N(CCCCC3CCCCC3)c3ccccc32)C1=O"
target_system = "mPGES-1 Mouse enzyme (Mus musculus, UniProt Q9JM51)"
class = "bin B"

[[record]]
smiles_representation = "CCCCCCCOc1c(Br)cc(C=C(C#N)C#N)cc1OC"
target_system = "mPGES-1 Mouse enzyme (Mus musculus, UniProt Q9JM51)"
class = "bin A"


(Q) Band assignment needed for CCCCCCCCN1C(=O)/C(=C2\SC(=O)N(CC(=O)O)C2=O)c2ccccc21 please.
(A) bin C

(Q) Band assignment needed for O=C(O)CN1C(=O)S/C(=C2\C(=O)N(CC3CCCCC3)c3ccc(-c4ccc(-c5ccccc5)cc4)cc32)C1=O please.
(A) bin B

(Q) Band assignment needed for CCCCCCCOc1ccc(C=C(C#N)C#N)cc1OC please.
(A) bin C

(Q) Band assignment needed for CCCCCCCOc1ccc(C=C(C#N)C#N)cc1[N+](=O)[O-] please.
(A) bin A

(Q) Band assignment needed for O=C(O)CN1C(=O)S/C(=C2\C(=O)N(CCCOc3ccc4ccccc4c3)c3ccccc32)C1=O please.
(A) bin B
